- TEST DETAILS: physchem
- TEST PARAMETERS: buffer, pH 7.4, logD
Task for the reader: assign each of the following compounds its reported logD.
Number only, no unit.

Lookup: Using the record for CCNC(=O)C(C)N(CC(c1ccccc1)c1ccccc1)C(=O)c1cc(C)c(=O)n(C)c1 (stereo not drawn) , report its logD.
Found: 4.3

Lookup: Using the record for CNC(=O)C(C)(C)N(CC(c1ccccc1)c1ccccc1)C(=O)c1cc(C)c(=O)n(C)c1 , report its logD.
Found: 3.7

Lookup: Using the record for CNC(=O)C1(N(CC(c2ccccc2)c2ccccc2)C(=O)c2cc(C)c(=O)n(C)c2)CC1 , report its logD.
Found: 4.4
